Known C50 of a selection of molecules
- method: Displacement of ethidium from poly[d(A-T)]-poly[d(A-T)] DNA by fluorimetric method
// units = µM; emit number, no label

These recorded examples may help you get a feel for the data.
[[record]]
inputsmiles = "Cc1c(C(=O)Nc2ccc(C(=O)Nc3ccc[n+](C)c3)cc2)ccc(C(=O)Nc2ccc(C(=O)Nc3ccc[n+](C)c3)cc2)c1C.Cc1ccc(S(=O)(=O)[O-])cc1.Cc1ccc(S(=O)(=O)[O-])cc1"
valueobserved = 5.4

[[record]]
inputsmiles = "C/C(=N\\NC(=N)N)c1ccc(NC(=O)c2ccc(Nc3cc[n+](C)c4cc([N+](=O)[O-])ccc34)cc2)cc1.Cl.[Cl-]"
valueobserved = 0.13


Give its C50 value. Item: "C[n+]1ccc(Nc2ccc(NC(=O)Nc3ccc(Nc4cc[n+](C)c5ccc(N)cc45)cc3)cc2)cc1.Cc1ccc(S(=O)(=O)[O-])cc1.Cc1ccc(S(=O)(=O)[O-])cc1"
0.28
